Provenance of the data: the RNAGym collection of RNA variant scans (doi:10.1093/nar/gkz1192)

B1: CPEB3 Ribozyme (parent)
chain: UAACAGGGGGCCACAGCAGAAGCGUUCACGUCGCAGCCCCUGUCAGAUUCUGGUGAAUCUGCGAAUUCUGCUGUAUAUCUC

variants of: B1; assay: self-cleavage, relative activity (ratio to wild type); higher = more cleavage; in vitro, sequencing
Please assign a class to every record based on measured self-cleavage, with ranges band A (below 0.2), band B (0.2 to below 0.6), band C (0.6 or more)

input: Form: Item = A28G A57C ; Class = ?
output: band A

input: Form: Item = C50A U60A ; Class = ?
output: band B

input: Form: Item = A5C U48C ; Class = ?
output: band C

input: Form: Item = U26G A35U ; Class = ?
output: band A

input: Form: Item = G7U A45G ; Class = ?
output: band B

input: Form: Item = U49C A75C ; Class = ?
output: band B

input: Form: Item = G33A C62U ; Class = ?
output: band A

input: Form: Item = A21C C38A ; Class = ?
output: band A

input: Form: Item = C50U C79U ; Class = ?
output: band C
